system: Saccharomyces cerevisiae; experiment: protein stability index of tFT-peptide fusion (C-terminal peptide) (PSI (0-1 scale)); higher = more stable (slower turnover); settings: genetic background: wild type; temperature: 30 C
Cut-off 0.7 on protein stability index, inclusive. At or above means 1; below means 0.

biosequence: GGKIFSLKLTLI [YPR108W-A C-terminal 12 aa]
class.assignment: 0

biosequence: PFPLPSTERVIF [ADY2 C-terminal 12 aa]
class.assignment: 1

biosequence: ELEELLEPILAN [GRX1 C-terminal 12 aa]
class.assignment: 0

biosequence: ATRRHLAHAPKL [DPI8 C-terminal 12 aa]
class.assignment: 1

biosequence: KAGEMVLKSLRR [SCP160 C-terminal 12 aa]
class.assignment: 1

biosequence: PMALFGIFAVAL [AFB1 C-terminal 12 aa]
class.assignment: 0

biosequence: YIKKSAKKGDKN [YHR140W C-terminal 12 aa]
class.assignment: 0

biosequence: SSVVSRVSRSCR [YAR060C C-terminal 12 aa]
class.assignment: 0

biosequence: KPLYYRIYRFFC [MMP1 C-terminal 12 aa]
class.assignment: 0

biosequence: LTLNWGVEIVKK [RDI1 C-terminal 12 aa]
class.assignment: 1

biosequence: KKNRSGLRHSES [SQS1 C-terminal 12 aa]
class.assignment: 0

biosequence: SSAHMSSNAIQR [CDC10 C-terminal 12 aa]
class.assignment: 1

====

Items are presented alongside their recorded protein stability index.
system: Saccharomyces cerevisiae; test: protein stability index of tFT-peptide fusion (C-terminal peptide) (PSI (0-1 scale)); higher = more stable (slower turnover); conditions: genetic background: doa10 deletion; temperature: 30 C
quantity: protein stability index

biosequence: CLASCRHRTYLC
test.value: 0.338
//
biosequence: FLCLLASFVVCF
test.value: 0.249
//
biosequence: CVLGWCSLIAWC
test.value: 0.245
//
biosequence: PFSLCFVFPFFF
test.value: 0.143
//
biosequence: LCWASLLIVYLP
test.value: 0.27
//
biosequence: MALAVRVVYCGA
test.value: 0.234
//
biosequence: VPSMSIVWCRVL
test.value: 0.168
//
biosequence: LVCSRFLFAFHC
test.value: 0.076
//
biosequence: WIYKIVTYEKKS
test.value: 0.633
//
biosequence: RLSGACILLSLV
test.value: 0.217
//
biosequence: PFLSLPFLFPSS
test.value: 0.687
//
biosequence: PGWALLQLVFLK
test.value: 0.496
//
biosequence: GSLPERPLRYVC
test.value: 0.1
//
biosequence: FHRSVVRLWLRN
test.value: 0.114
//
biosequence: WCAVRVWFGAAL
test.value: 0.393
//
biosequence: VVFFFKFFLLRL
test.value: 0.362
//
biosequence: RLLLLPGPLALQ
test.value: 0.685
//
biosequence: GGFLLRGLFLFL
test.value: 0.542
//
biosequence: SPLHGFLFLVLL
test.value: 0.528

====

test system: Saccharomyces cerevisiae; assay: protein stability index of tFT-peptide fusion (C-terminal peptide) (PSI (0-1 scale)); higher = more stable (slower turnover); conditions: genetic background: das1 deletion; temperature: 30 C
Cut-off 0.7 on protein stability index, inclusive. At or above means T; below means F.

biosequence: LIVSYCASVAFG [ATG12 C-terminal 12 aa]
class.assignment: F
--
biosequence: ATRRHLAHAPKL [DPI8 C-terminal 12 aa]
class.assignment: T
--
biosequence: SVENIFMIWFFY [YJL022W C-terminal 12 aa]
class.assignment: F
--
biosequence: PLLELVMELRDR [MOB1 C-terminal 12 aa]
class.assignment: T
--
biosequence: SEYRRKQQEKKD [YPI1 C-terminal 12 aa]
class.assignment: T
--
biosequence: LRKAAANNCIQF [SUA5 C-terminal 12 aa]
class.assignment: T
--
biosequence: KTRWQRVWDVLS [ALP1 C-terminal 12 aa]
class.assignment: T
--
biosequence: CCGSVLLWCLVV [YLR437C-A C-terminal 12 aa]
class.assignment: F
--
biosequence: LCGAPNCKGFLN [SET1 C-terminal 12 aa]
class.assignment: F
--
biosequence: WLRKWLSTFVHQ [YNL018C C-terminal 12 aa]
class.assignment: T
--
biosequence: VRILTKYPKILV [RIM101 C-terminal 12 aa]
class.assignment: F
--
biosequence: LGSNCVFLAIFR [YPL222C-A C-terminal 12 aa]
class.assignment: F
--
biosequence: LGFIQNSTIVCQ [YMR306C-A C-terminal 12 aa]
class.assignment: F
--
biosequence: LARLKTCVLLIN [YML122C C-terminal 12 aa]
class.assignment: F
--
biosequence: ENWIHVSCLSFM [LIN1 C-terminal 12 aa]
class.assignment: F
--
biosequence: GKTDYLDTKLIF [EKI1 C-terminal 12 aa]
class.assignment: T

====

Items are presented alongside their recorded protein stability index.
tested on: Saccharomyces cerevisiae; test: protein stability index of tFT-peptide fusion (C-terminal peptide) (PSI (0-1 scale)); higher = more stable (slower turnover); settings: genetic background: wild type; temperature: 30 C

biosequence: RAVLSNRVEERI
protein stability index: 0.696
--
biosequence: LGPRVGDPDGRF
protein stability index: 0.742
--
biosequence: WAARLDISQSPI
protein stability index: 0.754
--
biosequence: CVPLSAIFSAFT
protein stability index: 0.77
--
biosequence: ADENFKVRKRRS
protein stability index: 0.703
--
biosequence: MIKAPGHKGTIN
protein stability index: 0.684
--
biosequence: VVVSGGGEGFWL
protein stability index: 0.745
--
biosequence: PLPPSPTRPPAN
protein stability index: 0.662
--
biosequence: PYHVPTPRATNR
protein stability index: 0.659
--
biosequence: WFDWLAIAFYLT
protein stability index: 0.526

====

system: Saccharomyces cerevisiae; assay: protein stability index of tFT-peptide fusion in wild type (PSI (0-1 scale)); higher = more stable (slower turnover); settings: genetic background: wild type

biosequence: RSLRVLFPLYFR
target.or.system: Saccharomyces cerevisiae
protein stability index: 0.196
--
biosequence: RSLRVLLPLYYR
target.or.system: Saccharomyces cerevisiae
protein stability index: 0.375
--
biosequence: VRGAVGGWRLVC
target.or.system: Saccharomyces cerevisiae
protein stability index: 0.143
--
biosequence: FSMNWTFRYWVN
target.or.system: Saccharomyces cerevisiae
protein stability index: 0.0654
--
biosequence: AITLPMCDLLLR
target.or.system: Saccharomyces cerevisiae
protein stability index: 0.639
--
biosequence: CLVSLPILGFFR
target.or.system: Saccharomyces cerevisiae
protein stability index: 0.625
--
biosequence: LKILRQKANHQN
target.or.system: Saccharomyces cerevisiae
protein stability index: 0.373
--
biosequence: KKHVKGQKQKIN
target.or.system: Saccharomyces cerevisiae
protein stability index: 0.0752
--
biosequence: QRGAVGGWRLVG
target.or.system: Saccharomyces cerevisiae
protein stability index: 0.161
--
biosequence: LHVYLSCVACIN
target.or.system: Saccharomyces cerevisiae
protein stability index: 0.0172
--
biosequence: HRWRVGLWRGAS
target.or.system: Saccharomyces cerevisiae
protein stability index: 0.457
--
biosequence: FSMRWTFGYWVN
target.or.system: Saccharomyces cerevisiae
protein stability index: 0.0637
--
biosequence: RSTRVLLPLYFR
target.or.system: Saccharomyces cerevisiae
protein stability index: 0.292
--
biosequence: CTSYGYKFRTNN
target.or.system: Saccharomyces cerevisiae
protein stability index: 0.145
--
biosequence: LKMLRQKMNHQN
target.or.system: Saccharomyces cerevisiae
protein stability index: 0.171
--
biosequence: LVVYLSCDACIN
target.or.system: Saccharomyces cerevisiae
protein stability index: 0.144
--
biosequence: PSLAASFWRVVN
target.or.system: Saccharomyces cerevisiae
protein stability index: 0.133
--
biosequence: CLVCLPILLFFR
target.or.system: Saccharomyces cerevisiae
protein stability index: 0.104
--
biosequence: ARWRVGLWRGASE
target.or.system: Saccharomyces cerevisiae
protein stability index: 0.663

====

system: Saccharomyces cerevisiae; assay: protein stability index of tFT-peptide fusion (C-terminal peptide) (PSI (0-1 scale)); higher = more stable (slower turnover); conditions: genetic background: wild type; temperature: 30 C
quantity: protein stability index

biosequence: VSLDNLPGVEKK [SUA7 C-terminal 12 aa]
test.value: 0.683

biosequence: VTEAESTASAST [BUD20 C-terminal 12 aa]
test.value: 0.693

biosequence: YFSSNISMKTEN [REB1 C-terminal 12 aa]
test.value: 0.737

biosequence: SSVRTLDSNIWR [ISC10 C-terminal 12 aa]
test.value: 0.686

biosequence: QARKSKSVSFYA [RPT5 C-terminal 12 aa]
test.value: 0.692

biosequence: SEYRRKQQEKKD [YPI1 C-terminal 12 aa]
test.value: 0.688

biosequence: KKKNKNKGKKKR [SRP21 C-terminal 12 aa]
test.value: 0.719

biosequence: CCGSVLLWCLVV [YLR437C-A C-terminal 12 aa]
test.value: 0.27

biosequence: VLELSLGFTKLD [MON2 C-terminal 12 aa]
test.value: 0.707

biosequence: RVSRMRAKRKYQ [YOR300W C-terminal 12 aa]
test.value: 0.676

biosequence: AKLFKEIFAYKV [COQ8 C-terminal 12 aa]
test.value: 0.66

biosequence: QINDLEIYRKRL [SNT309 C-terminal 12 aa]
test.value: 0.68

biosequence: MQRVSTQHEKSS [PMA2 C-terminal 12 aa]
test.value: 0.711

biosequence: FRALAELYNLVL [GAS5 C-terminal 12 aa]
test.value: 0.681

biosequence: PRSDDEDDEDSE [FAP7 C-terminal 12 aa]
test.value: 0.671

biosequence: TYSEREGNLLNS [RPR2 C-terminal 12 aa]
test.value: 0.675

biosequence: SDDDDYDEVANQ [UBC8 C-terminal 12 aa]
test.value: 0.664

biosequence: FTAVLGTYLLTL [SDH3 C-terminal 12 aa]
test.value: 0.645

biosequence: LSNMLNQFILNL [YLR202C C-terminal 12 aa]
test.value: 0.75

biosequence: TGWPTGLRHQHT [YER133W-A C-terminal 12 aa]
test.value: 0.695

biosequence: QVGKSQAQAVTL [ANY1 C-terminal 12 aa]
test.value: 0.717

biosequence: VKDLYKRLTIQA [GPI1 C-terminal 12 aa]
test.value: 0.0975

biosequence: KMLDALKNERKK [HTL1 C-terminal 12 aa]
test.value: 0.673

biosequence: MKKLQNKKSSAV [CAB5 C-terminal 12 aa]
test.value: 0.677

biosequence: LSEKIYDAFGKL [MUS81 C-terminal 12 aa]
test.value: 0.727
